The origin of these recorded values is patent US3932633A.

experiment: Neurotoxicity (rotating rod / rotorod), rats; conditions: rat, in vivo, ip; I.P., rats; 95% confidence limits; read-out: NTD50
List of TD50 values.
Record the value in mg/kg, omitting the unit from your answer.

# molecule, metric name, numeric readout
records = [
    ("CNC1=Nc2ccc(Cl)cc2C(c2ccccc2)=[N+]([O-])C1 [Chlordiazepoxide, chlordiazepoxide]", "TD50", 4.3),
]

Query molecule follows.
[ask] Fill in: TD50 of CN(C)CCCN1c2ccccc2Sc2ccc(Cl)cc21 [Chlorpromazine, chlorpromazine] is ___
[reply] 5.3

* * *

test: 5 day lethality, mice; conditions: mouse, in vivo, ip
metric name: LD50 at 120 h

[ask] Fill in: LD50 at 120 h of Cc1nc(NN=Nc2ccccc2C(N)=O)sc1C(=O)NCc1ccccc1 is ___
[reply] > 1280 mg/kg

* * *

assay: 5 day lethality, mice; conditions: mouse, in vivo, ip; Mice, I.P., 5 day, 10 per cage; read-out: LD50 (95% Confidence Limits)
List of LD50 at 120 h values.
Record the value in mg/kg, omitting the unit from your answer.

# compound, endpoint unit, LD50 at 120 h
rows = [
    ("CN(C)CCCN1c2ccccc2Sc2ccc(Cl)cc21", "mg/kg", 136),
]

Query compound follows.
[ask] Fill in: LD50 at 120 h of CNC1=Nc2ccc(Cl)cc2C(c2ccccc2)=[N+]([O-])C1 [Chlordiazepoxide, chlordiazepoxide] is ___
[reply] 400

* * *

assay: Neurotoxicity (rotating rod / rotorod), mice; details: mouse, in vivo, ip; I.P., mice; 95% confidence limits; read-out: NTD50
List of TD50 values.
Record the value in mg/kg, omitting the unit from your answer.

# compound, numeric readout
records = [
    ("CNC1=Nc2ccc(Cl)cc2C(c2ccccc2)=[N+]([O-])C1 [Chlordiazepoxide, chlordiazepoxide]", 13.8),
]

[ask] Fill in: TD50 of CN(C)CCCN1c2ccccc2Sc2ccc(Cl)cc21 is ___
[reply] 0.7

* * *

test: 5 day lethality, mice; settings: mouse, in vivo, po
metric name: LD50 at 120 h

[ask] Fill in: LD50 at 120 h of Cc1nc(NN=Nc2ccccc2C(N)=O)sc1C(=O)NCc1ccccc1 [Example 6] is ___
[reply] > 800 mg/kg

* * *

assay: 5 day lethality, rats; settings: rat, in vivo, ip
metric name: LD50 at 120 h

[ask] Fill in: LD50 at 120 h of Cc1nc(NN=Nc2ccccc2C(N)=O)sc1C(=O)NCc1ccccc1 is ___
[reply] > 1400 mg/kg

* * *

List of LD50 at 120 h values.
Experiment: 5 day lethality, rats
Details: rat, in vivo, ip; Rats, I.P., 5 day, 10 per cage; read-out: LD50 (95% Confidence Limits)
From the text: Table VIII gives the results of 5 day lethality studies following single injections of drug. All values presented represent tests conducted when animals were housed 10 per cage. The compound of Example 6 was compared with chlorpromazine and chlordiazepoxide. In these and all the preceding calculations, the method of Litchfield and Wilcoxon (J. Pharmacol. Exptl. Ther., 96: 99, 1949) was used to estimate effective (ED50) or lethal (LD50) dose.
Record the value in mg/kg, omitting the unit from your answer.

# compound, endpoint unit, LD50 at 120 h
measured = [
    ("CN(C)CCCN1c2ccccc2Sc2ccc(Cl)cc21 [Chlorpromazine, chlorpromazine]", "mg/kg", 138),
]

Query compound follows.
[ask] Fill in: LD50 at 120 h of CNC1=Nc2ccc(Cl)cc2C(c2ccccc2)=[N+]([O-])C1 [Chlordiazepoxide, chlordiazepoxide] is ___
[reply] 265

* * *

experiment: Neurotoxicity (rotating rod / rotorod), rats; conditions: rat, in vivo, ip
metric name: TD50

[ask] Fill in: TD50 of Cc1nc(NN=Nc2ccccc2C(N)=O)sc1C(=O)NCc1ccccc1 is ___
[reply] ~500 mg/kg
